- protocol details: Metabolism in rabbit liver homogenate (formation of 7-OH-MTX)
- Type: in vitro ADME, New Zealand white rabbit
- condition notes: rabbit, liver homogenate, pH 7.6
observable: metabolised at 10 min

q: Item under review: CN(Cc1cnc2nc(N)nc(N)c2n1)c1ccc(C(=O)N[C@@H](CCC(=O)O)C(=O)O)cc1 . Reported metabolised at 10 min?
a: ~50%

###

- protocol details: Metabolism in rabbit liver homogenate (formation of 7-OH-MTX)
- Type: in vitro ADME, New Zealand white rabbit
- condition notes: rabbit, liver homogenate, pH 7.6
observable: remaining at 1 h

q: Item under review: CN(Cc1cnc2nc(N)nc(N)c2n1)c1ccc(C(=O)N[C@@H](CCC(=O)O)C(=O)O)cc1 . Reported remaining at 1 h?
a: < 25%

###

IC50 data for Chicken Liver DHFR (Gallus gallus, UniProt P00378) follow.
Your answer should be a plain number; it is taken to be in nM.

q: Item under review: COc1nc2nc(N)nc(N)c2nc1CN(C)c1ccc(C(=O)N[C@@H](CCC(=O)O)C(=O)O)cc1 . Reported IC50?
a: 750

q: Item under review: CNc1nc2nc(N)nc(N)c2nc1CN(C)c1ccc(C(=O)N[C@@H](CCC(=O)O)C(=O)O)cc1 . Reported IC50?
a: 300

q: Item under review: CN(Cc1nc2c(N)nc(N)nc2nc1N=[N+]=[N-])c1ccc(C(=O)N[C@@H](CCC(=O)O)C(=O)O)cc1 . Reported IC50?
a: 400

q: Item under review: CN(Cc1nc2c(N)nc(N)nc2nc1F)c1ccc(C(=O)N[C@@H](CCC(=O)O)C(=O)O)cc1 . Reported IC50?
a: 1500

q: Item under review: CC(C)Nc1nc2nc(N)nc(N)c2nc1CN(C)c1ccc(C(=O)N[C@@H](CCC(=O)O)C(=O)O)cc1 . Reported IC50?
a: 500

q: Item under review: CCOc1nc2nc(N)nc(N)c2nc1CN(C)c1ccc(C(=O)N[C@@H](CCC(=O)O)C(=O)O)cc1 . Reported IC50?
a: 2000
